The measured values listed here are drawn from PubChem BioAssay AID2060616.

Recorded viability, T/C, one value per entry.
- Tested on: 377384-186-R-J1-PDC complex spheroid viability
- ASSAY_OVERVIEW: Anticancer human tumor 377384-186-R-J1-PDC patient-derived pancreatic carcinoma cell line growth inhibition [CLK]
- APPLIED_CONDITIONS: second compound 10 µM; first compound 0.0316 µM; active compounds read low
METRIC_NAME: viability, T/C (%)

| MOLECULE | TARGET_DESC | MEASURED_NUMBER |
| --- | --- | --- |
| C=CC(=O)N1CCN(c2nc(=O)n(-c3c(C)ccnc3C(C)C)c3nc(-c4c(O)cccc4F)c(F)cc23)C(C)C1 (stereo not given) + CN1CCN(c2cc(C(=O)Nc3cc4cc(-c5cnn(C)c5)ccc4cn3)ccn2)CC1 | 377384-186-R-J1-PDC complex spheroid viability | 0.44 |
| COC1C=CCC(C)C(C)S(=O)(=O)NC(=O)c2ccc3c(c2)N(CC2CCC21)CC1(CCCc2cc(Cl)ccc21)CO3 (stereo not given) + CNC(=O)c1ccc(Nc2nc(OC3CCCC3)c3c(-c4ccc5nc(C)oc5c4)c[nH]c3n2)c(OC)c1 | 377384-186-R-J1-PDC complex spheroid viability | 18.5 |
| Nc1ccn(C2OC(CO)C(O)C2(F)F)c(=O)n1 (stereo not given) + CNC(=O)c1ccc(Nc2nc(OC3CCCC3)c3c(-c4ccc5nc(C)oc5c4)c[nH]c3n2)c(OC)c1 | 377384-186-R-J1-PDC complex spheroid viability | 9.23 |
| C#Cc1c(F)ccc2cc(O)cc(-c3ncc4c(N5CC6CCC(C5)N6)nc(OCC56CCCN5CC(F)C6)nc4c3F)c12 (stereo not given) + CNC(=O)c1ccc(Nc2nc(OC3CCCC3)c3c(-c4ccc5nc(C)oc5c4)c[nH]c3n2)c(OC)c1 | 377384-186-R-J1-PDC complex spheroid viability | 4.62 |
| C=C(F)C(=O)N1CCN(c2nc(OCC3CCCN3C)nc3c2CCN(c2cccc4cccc(Cl)c24)C3)CC1CC#N (stereo not given) + CNC(=O)c1ccc(Nc2nc(OC3CCCC3)c3c(-c4ccc5nc(C)oc5c4)c[nH]c3n2)c(OC)c1 | 377384-186-R-J1-PDC complex spheroid viability | 20.6 |

###

Reported viability, T/C is given for each of the following compounds.
- System: 377384-186-R-J1-PDC complex spheroid viability
- ASSAY_OVERVIEW: Anticancer human tumor 377384-186-R-J1-PDC cell line growth inhibition [CLK];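 also: luminescence signal used as a stand-in for viable cells; spheroids exposed to agents for 7 days before reading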
- APPLIED_CONDITIONS: second compound 10 µM; first compound 0.0316 µM; active compounds read low

| COMPOUND | viability, T/C (%) |
| --- | --- |
| COc1ccc([C@@H](O)c2cc(-c3ncnc4cc(N5CCOCC5)ccc34)c(F)cc2Cl)nn1 + CN1CCN(c2cc(C(=O)Nc3cc4cc(-c5cnn(C)c5)ccc4cn3)ccn2)CC1 | 0.49 |
| COC1C=CCC(C)C(C)S(=O)(=O)NC(=O)c2ccc3c(c2)N(CC2CCC21)CC1(CCCc2cc(Cl)ccc21)CO3 (stereo not given) + CN1CCN(c2cc(C(=O)Nc3cc4cc(-c5cnn(C)c5)ccc4cn3)ccn2)CC1 | 0.42 |
| Nc1ccccc1NC(=O)c1ccc(CNC(=O)OCc2cccnc2)cc1 + CNC(=O)c1ccc(Nc2nc(OC3CCCC3)c3c(-c4ccc5nc(C)oc5c4)c[nH]c3n2)c(OC)c1 | 20.6 |
| CC(Nc1ccc2c(c1)OCCn1cc(N3C(=O)OCC3C(F)F)nc1-2)C(N)=O (stereo not given) + CN1CCN(c2cc(C(=O)Nc3cc4cc(-c5cnn(C)c5)ccc4cn3)ccn2)CC1 | 0.32 |
| CCCS(=O)(=O)Nc1ccc(F)c(C(=O)c2c[nH]c3ncc(-c4ccc(Cl)cc4)cc23)c1F + CNC(=O)c1ccc(Nc2nc(OC3CCCC3)c3c(-c4ccc5nc(C)oc5c4)c[nH]c3n2)c(OC)c1 | 21.5 |
